A collection of molecules and their measured TGI
- Test system: SNB-19 CNS
- Protocol: NCI tumour cell line growth inhibition, 48 h
Where a SMILES comes first, the peptide text is derived from it. [ ]: non-standard residue; d: D form. The star is where a group is joined. ξ: configuration not given here. NMeY = CN[C@@H](Cc1ccc(O)cc1)C(=O)O; Cbz = O=C(OCc1ccccc1)*; ξA = CC(N)C(=O)O
Measure: TGI

Cc1ccc(NC(=O)c2cccc(OP(=O)(Nc3ccc(C)cc3)Nc3ccc(C)cc3)c2)cc1 : > 100 µM
COc1ccc2[nH]c(C(=O)OCc3ccc4c(Br)cc(Br)c(O)c4n3)cc2c1 : 2.89 µM
COc1ccc2nc3c4c(nccc4c2c1)-c1ncccc1C3=O : 0.279 µM
CC(C)c1cnc(-c2cc(Cl)ccc2F)cc1Nc1ccncc1C(=O)NC(CO)CO : 54 µM
COc1ccc(-c2cc(=O)c3c(OC)c4ccoc4c(/C=C/C=O)c3o2)cc1 : 46.6 µM
COc1ccc(C[C@@H](C(=O)N[C@@H](C)C(N)=O)N(C)C(=O)[C@@H]2CCCN2C(=O)[C@H](CC(C)C)NC(=O)C(C)NC(=O)OCc2ccccc2)cc1 (stereo partly drawn) (Cbz-[ξA]LP[NMeY](Me)A-NH2) : > 100 µM
COc1cccc(CCn2c(N)c(-c3cc(Cl)cc(Cl)c3)c3ccc([N+](=O)[O-])cc3c2=O)c1 : > 44 µM
CN1C(=O)C(=Cc2ccc(Br)cc2)C(=O)N(C)C1=O : > 100 µM
O=C(c1ccccc1)n1cc(/C=C/[N+](=O)[O-])c2ccccc21 : 92.3 µM
CCOC(=O)C1=C(C)NC2SC(=O)/C(=C\c3cccc(Cl)c3)N2C1c1ccccc1 (stereo not drawn) : > 100 µM
CCOC(=O)N1c2ccccc2N(C(=O)OCC)C1CC(=O)/C=C/c1ccccc1 : 16.8 µM
CC(=Nc1ccc(Cl)cc1)c1ccncc1 : > 100 µM
COc1ccc(C2=C(c3ccccc3)C(=O)N3CCCC3C2)cc1 (stereo not drawn) : > 100 µM
O=[N+]([O-])C(C(Cl)=C(Cl)Cl)=C(N1CCCCC1)N1CCCCC1 : > 100 µM
CC1(C)CC(=O)c2c(-c3ccc(Cl)cc3)c(C#N)c(=S)n(C3OC(CO)C(O)C(O)C3O)c2C1 (stereo not drawn) : > 100 µM
C/C=C1\Oc2ccc(OC)cc2S1(=O)=O : > 100 µM
Cc1nc2ccc(-n3ncc(C(=O)c4cc5ccccc5[nH]4)c3N)cc2[nH]1 : > 100 µM
CS(=O)(=O)Nc1cc(-c2ccc3ncc(C#N)c(Nc4ccc(F)c(Cl)c4)c3c2)cnc1Cl : 1.64 µM

* * *

Recorded measurements of TGI, one per entry
- Tested on: UACC-257 melanoma
- Protocol: NCI tumour cell line growth inhibition, 48 h
Measure: TGI

C1=NN2C(c3ccccc3)=NOC2C2C(c3ccccc3)=NOC12 (stereo unspecified) : > 100 µM
CC(C)N(CC(=O)O)CC(=O)O : > 100 µM
O=c1[nH]c(=O)n([C@H]2C[C@@H](CO)[C@@H](O)C2)cc1I : > 100 µM
CCOC(=O)CCc1c(C)c2c(OC)cc(OC)cc2oc1=O : > 100 µM
O=S(=O)(O)c1c(Cl)c(Cl)c(O)c2ncccc12 : 97.6 µM
CC(=O)OC1C(O)C(C)OC(OC2C(OC(=O)C3CCC4C(C3)OC3(CC(OC(=O)/C=C/c5ccccc5)C(C)CO3)C43CO3)OC(C)C(O)C2OC(C)=O)C1O (stereo unspecified) : 0.0811 µM
C=CC(C)(C)NC(C(=O)N1CCC[C@H]1c1nc(-c2nc(C(=O)OCC=C(C)C)c(C)o2)c(C)o1)C(C)C (stereo partly specified) : > 100 µM
COC(=O)[C@]12CC[C@H]3CN(S(=O)(=O)c4ccc(C)cc4)[C@H]([C@H]31)[C@H](c1ccco1)N2S(=O)(=O)c1ccc(C)cc1 : 81.1 µM
O=C(O)C1=Cc2cccc3cccc(c23)C1=O : > 100 µM
Cc1cc(S(=O)(=O)Nc2nc3ccccc3c(=O)n2Cc2ccco2)c(S)cc1Cl : > 100 µM
CN1CCCS/C1=C1/SC(=S)N(c2ccccc2)C1=O : > 100 µM
OC1C2CCCCN2C[C@@H](O)[C@H]1O (stereo partly specified) : > 100 µM
N#Cc1c(C#N)c(SSc2c(C#N)c(C#N)c(N)n2-c2cccc3ccccc23)n(-c2cccc3ccccc23)c1N : 37.6 µM
COC1(OC)CCN(Cc2ccccc2)C1=O : 28.6 µM
Cc1cc(-c2nc3cc(F)ccc3s2)ccc1N : > 69.9 µM
CC1(C)N=C(N)N=C(N)N1c1ccc(OCC(=O)Nc2ccc(S(=O)(=O)F)cc2Cl)c(Cl)c1 : > 100 µM
COP12(OC)NC(=O)OC1(C(F)(F)F)c1ccccc1O2 (stereo unspecified) : > 100 µM
CCCCCOC(=O)Nc1nc(=O)n(C2OC(C)C(O)C2O)cc1F (stereo unspecified) : > 10000 µM
O=C1NC(c2ccc3ccccc3c2)Nc2ccccc21 (stereo unspecified) : > 100 µM
COc1ccc(OC(=O)N2C/C(=C\c3ccccc3)C(=O)/C(=C/c3ccccc3)C2)cc1 : 7.71 µM
C=C1N(C)c2ccc(S(=O)(=O)c3ccc4c(c3)C(C)(C)C(=C)N4C)cc2C1(C)C : > 100 µM
COc1ccc2[nH]c(C(=O)OCc3ccc4c(Br)cc(Br)c(O)c4n3)cc2c1 : 2.85 µM
CCOC(=O)c1c(C)n([O-])c2cc(F)c(F)cc2[n+]1=O : 3.69 µM
COc1ccc(-c2nc3sccn3c2-c2ccnc(NCCNS(=O)(=O)c3ccc(C(F)(F)F)cc3)n2)cc1 : > 100 µM
CCOC(=O)C(C(=O)OCC)c1cc(-c2cc3ccccc3o2)oc(=O)c1C#N : 76.4 µM
c1ccc2c(c1)CCN1CCc3ccccc3C1C2 (stereo unspecified) : > 100 µM
COc1ccc(N=Nc2ccc(O)c(=O)cc2)cc1 : > 100 µM
CC(CC(=O)N1C2CC3CCC2(CS1(=O)=O)C3(C)C)[Si](C)(C)C (stereo unspecified) : > 100 µM
Cc1cc2c(cc1Cl)SC(NNCCO)=NS2(=O)=O : > 100 µM
CC(C)(C)OC(=O)N(O)CCCn1cnc2c(NC3CC3)ncnc21 : > 100 µM
Cc1ccccc1N(CCC#N)C1=NN(C(=O)CC(=O)Nc2ccc(Cl)cc2)C(c2ccccc2)C1 (stereo unspecified) : > 100 µM
